molecular target: Left-right determination factor 2 (Homo sapiens); assay: LEFTY2 binders on small-molecule microarrays, primary screen, biochemical, small-molecule microarray, 635 nm fluorescence scan (AID 1110); settings: LEFTY2 binding, higher = more signal
Please map values of composite z-score to classes as shown: low: < 0.02; intermediate: ≥ 0.02 and < 0.4; high: ≥ 0.4

Prompt line: Hello team, could you let me know which band the following molecule falls into: `CC(C)C[C@@H]1NC(=O)[C@@H]2C[C@H](C(=O)NCc3ccc(F)cc3)[C@H](c3cccc(OCCO)c3)N2C1=O`
Response line: intermediate

Prompt line: What do you get for `COc1ccc([Si](C)(C)[C@@H]2[C@@H](CC(=O)N3CCC[C@H]3CO)O[C@]3(C(=O)N(c4ccccc4)c4ccccc43)[C@H]2C)cc1` ?
Response line: high

Prompt line: What do you get for `CC(C)NC(=O)[C@@]1(c2ccc([N+](=O)[O-])cc2)CC(=O)N(C2CCCCC2)[C@@H]1c1ccc(CO)cc1I` ?
Response line: low

Prompt line: What do you get for `CCOC(=O)C1=CC[C@@H](c2ccccc2)N(S(=O)(=O)c2ccc(C)cc2)[C@H]1c1ccccc1C` ?
Response line: intermediate

Prompt line: What do you get for `C=CC[C@@]1(C(=O)NCCN2CCOCC2)N=C(c2ccc(OCCCO)cc2)O[C@@H]1c1ccccc1N=[N+]=[N-]` ?
Response line: intermediate

Prompt line: What do you get for `CO[C@H]1O[C@H](CO)[C@@H](OC(=O)Nc2cccc(F)c2)[C@H](OC(=O)Nc2ccccc2)[C@@H]1OC(=O)Nc1ccccc1` ?
Response line: intermediate

Prompt line: What do you get for O=C(NCCN1CCOCC1)C1N=C(c2ccc(OCCCO)cc2)N(c2ccccc2)O1 (stereo not given) ?
Response line: high

Prompt line: What do you get for `COC(=O)[C@@]1(CCC(=O)OC(C)(C)C)N=C(c2ccc(OCCCO)cc2)O[C@H]1c1ccccc1N=[N+]=[N-]` ?
Response line: low

Prompt line: What do you get for `CC[C@@H]1C=C(C(=O)O)[C@H](c2ccc(Br)cc2)N1S(=O)(=O)c1ccc(C)cc1` ?
Response line: low

Prompt line: What do you get for `C=CCNC(=O)[C@H]1[C@@H]2C(=O)O[C@@H](c3ccccc3)[C@@H](c3ccccc3)N2[C@@H](c2ccccc2OCCO)[C@]12C(=O)Nc1ccc(C#CCCO)cc12` ?
Response line: high

Prompt line: What do you get for `CC(C)(C)OC(=O)CC[C@]1(C(=O)N2CCOCC2)N=C(c2ccc(OCCCO)cc2)O[C@H]1c1ccccc1N=[N+]=[N-]` ?
Response line: intermediate

Prompt line: What do you get for `[N-]=[N+]=Nc1ccccc1[C@@H]1OC(c2ccc(OCCCO)cc2)=N[C@]1(CCS(=O)(=O)c1ccccc1)C(N)=O` ?
Response line: low

Prompt line: What do you get for C[C@H]1NC(=O)[C@@]23C(=O)N[C@@H](Cc4ccccc4)C2[C@H](C)[C@@]2(C)O[C@H]2C3/C=C/C/C=C\CNC(=O)[C@@H]2CCCN2C1=O (stereo not given in full) ?
Response line: intermediate

Prompt line: What do you get for CC1(C)[C@@H]2CC(C(O)C3C=CC4C(=O)N(Cc5ccccc5)C(=O)C4N3n3cnnc3)=C[C@H]1C2 (stereo not given in full) ?
Response line: intermediate

Prompt line: What do you get for `COc1cccc(-c2cccc(=O)o2)c1` ?
Response line: intermediate

Prompt line: What do you get for `C=C(COC)/C(=C/C[C@@H](OC(=O)c1ccncc1)c1ccc(CO)o1)c1cc(C(=O)OC)ccc1OC` ?
Response line: high

Prompt line: What do you get for `C=CCN1C(=O)[C@@]2(Cc3ccccc31)N=C(c1ccc(OCCCO)cc1)O[C@H]2c1ccccc1` ?
Response line: intermediate

Prompt line: What do you get for `COC(=O)[C@@]1(Cc2ccc(OC)cc2)[C@@H]2C(=CC(=O)[C@H]2CC(=O)C(=O)N2CCCC2)CN1C(=O)c1ccccc1` ?
Response line: low

Prompt line: What do you get for `NC(=O)NCC#Cc1ccc2c(c1)[C@]1(C(=O)N2)[C@H](c2ccc(O)cc2)N2[C@H](c3ccccc3)[C@H](c3ccccc3)OC(=O)[C@H]2[C@@H]1C(=O)O` ?
Response line: low

Prompt line: What do you get for `CC(C)NC(=O)[C@@H]1c2ccccc2C(=O)N(C2Cc3ccccc3C2)[C@H]1c1ccc(CO)cc1` ?
Response line: intermediate

Prompt line: What do you get for `O=C1O[C@H](c2ccccc2)[C@H](c2ccccc2)N2[C@H]1[C@@H](C(=O)N1CCCCCCC1)[C@]1(C(=O)Nc3ccc(C#CC4=CCCCC4)cc31)[C@H]2c1ccc(OCCO)cc1` ?
Response line: high

Prompt line: What do you get for Cc1ccccc1C(O)C1C=CC2C(=O)N(c3ccccc3)C(=O)C2N1Nc1ccc(C(C)C)cc1 (stereo not given) ?
Response line: intermediate

Prompt line: What do you get for `CCCCCCc1nc(-c2cc(C)c(OC)c(C)c2)cc2c1[Si](C(C)C)(C(C)C)OC2` ?
Response line: low

Prompt line: What do you get for O=C1C2C=CC(C(O)c3cc(C(F)(F)F)cc(C(F)(F)F)c3)N(n3cnnc3)C2C(=O)N1Cc1ccccc1 (stereo not given) ?
Response line: low

Prompt line: What do you get for `CCOC(=O)C[C@H]1[C@H](OC(=O)c2cc3ccccc3oc2=O)[C@@H](NC(=O)c2ccccc2)c2cc(OCCCO)ccc2N1C(=O)c1ccc2ccccc2n1` ?
Response line: high

Prompt line: What do you get for `CNS(=O)(=O)c1ccc(C)cc1` ?
Response line: high

Prompt line: What do you get for `C=C[C@@H](COC(=O)OC(C)(C)C)N(Cc1ccc(OC)cc1)S(=O)(=O)c1ccc(Br)cc1` ?
Response line: high

Prompt line: What do you get for CCCCCN1CC=CC23O[C@@H]4/C=C\CCC(C)OC(=O)C4[C@H]2C(=O)N(C(C)CO)[C@@H]3C1=O (stereo not given in full) ?
Response line: low

Prompt line: What do you get for `CCOC(=O)C[C@H]1[C@H](OC(=O)c2ccc(C(=O)c3ccccc3)cc2)[C@@H](NC(=O)c2ccccc2)c2cc(OCCCO)ccc2N1C(=O)Cc1ccc(OC)cc1` ?
Response line: intermediate
